Test system: E. coli TESEC Mtb Alr
Assay: growth (OD600 after 10 h); higher = more growth (less inhibition)
Settings: arabinose 1000 nM; compound 0.1 mM; raw OD600 reference: median of DMSO wells 0.294, cell-free background 0.041
Where a name gives a salt, the structure may show the parent alone.
quantity: growth
Reply: number alone, nothing else.

The value of growth measured for the molecule CC(=O)N[C@@H](CC(C)C)C(=O)O turned out to be 0.292

The value of growth measured for the molecule Cc1ccnc(NS(=O)(=O)c2ccc(N)cc2)n1 turned out to be 0.293

The value of growth measured for the molecule CC(=O)Oc1ccc(C(c2ccc(OC(C)=O)cc2)c2ccccn2)cc1 turned out to be 0.245

The value of growth measured for the molecule CC(C)OC(=O)CCC/C=C\C[C@@H]1[C@@H](CC[C@@H](O)CCc2ccccc2)[C@H](O)C[C@@H]1O turned out to be 0.05

The value of growth measured for the molecule CC(=O)N[C@@H](CC(=O)N[C@@H](CCC(=O)O)C(=O)O)C(=O)O turned out to be 0.289

The value of growth measured for the molecule CCn1cc(C(=O)O)c(=O)c2cc(F)c(N3CCNCC3)nc21 turned out to be 0.0427

The value of growth measured for the molecule CC(C)NC(=N)NC(=N)Nc1ccc(Cl)cc1 [Proguanil hydrochloride] turned out to be 0.261

The value of growth measured for the molecule CCN(CC)CCNC(C(=O)OCCC(C)C)c1ccccc1 (stereo not given) [Camylofine chlorhydrate] turned out to be 0.254

The value of growth measured for the molecule CCCNC(C)C(=O)Nc1c(C)csc1C(=O)OC (stereo not given) [Articaine hydrochloride] turned out to be 0.316

The value of growth measured for the molecule COc1cc2ncnc(Nc3ccc(F)c(Cl)c3)c2cc1OCCCN1CCOCC1 turned out to be 0.294

The value of growth measured for the molecule CN(C)CCC=C1c2ccccc2CCc2ccccc21 [Amitryptiline hydrochloride] turned out to be 0.218

The value of growth measured for the molecule CCOC(=O)/C=C(C)/C=C/C=C(C)/C=C/c1c(C)cc(OC)c(C)c1C [Etretinate] turned out to be 0.308

The value of growth measured for the molecule COc1ccc(C2CNC(=O)C2)cc1OC1CCCC1 (stereo not given) turned out to be 0.275

The value of growth measured for the molecule C#C[C@]1(O)CC[C@H]2[C@@H]3CCC4=CC(=O)CC[C@@H]4[C@H]3CC[C@@]21C turned out to be 0.221

The value of growth measured for the molecule O=C1CCc2ccc(OCCCCN3CCN(c4cccc(Cl)c4Cl)CC3)cc2N1 turned out to be 0.243

The value of growth measured for the molecule Cc1c(NC(C)C)c(=O)n(-c2ccccc2)n1C [Isopyrin hydrochloride] turned out to be 0.304

The value of growth measured for the molecule O=C1OC(CN2CCOCC2)CN1/N=C/c1ccc([N+](=O)[O-])o1 (stereo not given) [Furaltadone hydrochloride] turned out to be 0.0421

The value of growth measured for the molecule CC(C(O)c1ccc(O)cc1)N1CCC(Cc2ccccc2)CC1 (stereo not given) [Ifenprodil tartrate] turned out to be 0.251

The value of growth measured for the molecule CCCCOc1cc(C(=O)NCCN(CC)CC)c2ccccc2n1 turned out to be 0.281

The value of growth measured for the molecule Nc1ccc(S(=O)(=O)Nc2ccnn2-c2ccccc2)cc1 turned out to be 0.236

The value of growth measured for the molecule CCCOc1ccccc1-c1nc2[nH]nnc2c(=O)[nH]1 turned out to be 0.229

The value of growth measured for the molecule CCCCOC(=O)c1ccc(O)cc1 turned out to be 0.148

The value of growth measured for the molecule CN(C)CCC(c1ccccc1)c1ccccn1 (stereo not given) [Pheniramine maleate] turned out to be 0.289

The value of growth measured for the molecule CCN1CCC[C@H]1CNC(=O)c1c(O)c(Cl)cc(Cl)c1OC [Raclopride] turned out to be 0.16

The value of growth measured for the molecule Cc1c(-c2ccccc2)oc2c(C(=O)OCCN3CCCCC3)cccc2c1=O [Flavoxate hydrochloride] turned out to be 0.171

The value of growth measured for the molecule CC(C)(C)NCC(O)COc1cccc2c1CC(O)C(O)C2 (stereo not given) turned out to be 0.303

The value of growth measured for the molecule Clc1ccc(C(Cn2ccnc2)OCc2c(Cl)cccc2Cl)c(Cl)c1 (stereo not given) turned out to be 0.0445

The value of growth measured for the molecule NC(=O)c1cc[n+](CC2=C(C(=O)[O-])N3C(=O)[C@@H](NC(=O)[C@@H](c4ccccc4)S(=O)(=O)O)[C@H]3SC2)cc1 [Cefsulodin sodium salt] turned out to be 0.309

The value of growth measured for the molecule Cc1cn[nH]c1 [Fomepizole] turned out to be 0.291

The value of growth measured for the molecule CN(N=O)C(=O)N[C@H]1C(O)O[C@H](CO)[C@@H](O)[C@@H]1O (mixture of isomers) turned out to be 0.259

The value of growth measured for the molecule C[C@H]1C[C@H]2[C@@H]3CCC4=CC(=O)C=C[C@]4(C)[C@@]3(F)[C@@H](O)C[C@]2(C)[C@@]1(O)C(=O)CO turned out to be 0.231

The value of growth measured for the molecule C=C1c2c(Cl)ccc(O)c2C(O)=C2C(=O)[C@]3(O)C(O)=C(C(N)=O)C(=O)[C@@H](N(C)C)[C@@H]3[C@@H](O)[C@H]12.O=C(O)c1cc(S(=O)(=O)O)ccc1O [Meclocycline sulfosalicylate] turned out to be 0.0465

The value of growth measured for the molecule Cc1cc(C(=O)NNCc2ccccc2)no1 turned out to be 0.319

The value of growth measured for the molecule COc1ccccc1OCC(O)CN1CCN(CC(=O)Nc2c(C)cccc2C)CC1 (stereo not given) turned out to be 0.309

The value of growth measured for the molecule CC(C)(C)NCC(O)c1ccc(O)c(CO)c1 (stereo not given) turned out to be 0.285
